The origin of these recorded values is patent US4401660A.

# System: Staphylococcus epidermidis EPI1
# Test summary: MIC, standard agar-dilution assay (Table II)
# Format: cell-based
# Design: unit not given here
Metric: minimal inhibitory concentration (MIC)

molecule="CCC1OC(=O)CC(O)C(C)C(OC2OC(C)C(O)C(N(C)C)C2OC(C)=O)C(CC=O)CC(C)C(=O)C=CC(C)=CC1COC(=O)CCCCc1ccccc1 (stereo not drawn)" measured_value=0.25
molecule="CCC1OC(=O)CC(O)C(C)C(OC2OC(C)C(O)C(N(C)C)C2OC(C)=O)C(CC=O)CC(C)C(=O)C=CC(C)=CC1COC(=O)OC (stereo not drawn)" measured_value=0.25
molecule="CCC1OC(=O)CC(O)C(C)C(OC2OC(C)C(O)C(N(C)C)C2O)C(CC=O)CC(C)C(=O)C=CC(C)=CC1COC(=O)C(N)c1ccccc1 (stereo not drawn)" measured_value=0.5
molecule="CCC1OC(=O)CC(O)C(C)C(OC2OC(C)C(O)C(N(C)C)C2O)C(CC=O)CC(C)C(=O)C=CC(C)=CC1COC(=O)[C@H](O)c1ccccc1 (stereo partly drawn)" measured_value=0.25
molecule="CCC1OC(=O)CC(O)C(C)C(OC2OC(C)C(O)C(N(C)C)C2OC(=O)Cc2ccccc2)C(CC=O)CC(C)C(=O)C=CC(C)=CC1CO (stereo not drawn)" measured_value=0.5
molecule="CCCCCCCC(=O)OCC1C=C(C)C=CC(=O)C(C)CC(CC=O)C(OC2OC(C)C(OC(C)=O)C(N(C)C)C2OC(C)=O)C(C)C(O)CC(=O)OC1CC (stereo not drawn)" measured_value=0.5
molecule="CCC(=O)OCC1C=C(C)C=CC(=O)C(C)CC(CC=O)C(OC2OC(C)C(O)C(N(C)C)C2OC(=O)CC)C(C)C(O)CC(=O)OC1CC (stereo not drawn)" measured_value=0.25
molecule="CCC1OC(=O)CC(O)C(C)C(OC2OC(C)C(O)C(N(C)C)C2OC(C)=O)C(CC=O)CC(C)C(=O)C=CC(C)=CC1COC(=O)COc1ccccc1 (stereo not drawn)" measured_value=0.125
molecule="CCC1OC(=O)CC(O)C(C)C(OC2OC(C)C(O)C(N(C)C)C2OC(C)=O)C(CC=O)CC(C)C(=O)C=CC(C)=CC1COC(=O)NCc1ccccc1 (stereo not drawn)" measured_value=0.125
molecule="CCCCCCCC(=O)OCC1C=C(C)C=CC(=O)C(C)CC(CC=O)C(OC2OC(C)C(O)C(N(C)C)C2O)C(C)C(O)CC(=O)OC1CC (stereo not drawn)" measured_value=0.25
molecule="CCCC(=O)OCC1C=C(C)C=CC(=O)C(C)CC(CC=O)C(OC2OC(C)C(OC(C)=O)C(N(C)C)C2OC(C)=O)C(C)C(O)CC(=O)OC1CC (stereo not drawn)" measured_value=0.25
molecule="CCC(=O)OC1C(OC2C(CC=O)CC(C)C(=O)C=CC(C)=CC(COC(C)=O)C(CC)OC(=O)CC(O)C2C)OC(C)C(O)C1N(C)C (stereo not drawn)" measured_value=0.5

====

# System: Haemophilus influenzae R252
# Test summary: MIC, standard agar-dilution assay (Table II)
# Assay type: cell-based
# Design: unit not given here
# Settings: Haemophilus influenzae R252, ampicillin-resistant strain
Metric: minimal inhibitory concentration (MIC)

compound="CCCC(=O)OCC1C=C(C)C=CC(=O)C(C)CC(CC=O)C(OC2OC(C)C(OC(C)=O)C(N(C)C)C2OC(C)=O)C(C)C(O)CC(=O)OC1CC (stereo not drawn)" metric="minimal inhibitory concentration (MIC)" measured_value=2
compound="CCC1OC(=O)CC(O)C(C)C(OC2OC(C)C(O)C(N(C)C)C2O)C(CC=O)CC(C)C(=O)C=CC(C)=CC1COC(=O)NCc1ccccc1 (stereo not drawn)" metric="minimal inhibitory concentration (MIC)" measured_value=1
compound="CCC1OC(=O)CC(O)C(C)C(OC2OC(C)C(O)C(N(C)C)C2O)C(CC=O)CC(C)C(=O)C=CC(C)=CC1COC(=O)CCCCc1ccccc1 (stereo not drawn)" metric="minimal inhibitory concentration (MIC)" measured_value=2
compound="CCC1OC(=O)CC(O)C(C)C(OC2OC(C)C(O)C(N(C)C)C2OC(C)=O)C(CC=O)CC(C)C(=O)C=CC(C)=CC1COC(=O)c1ccc2ccccc2c1 (stereo not drawn)" metric="minimal inhibitory concentration (MIC)" measured_value=1
compound="CCC1OC(=O)CC(O)C(C)C(OC2OC(C)C(O)C(N(C)C)C2OC(=O)Cc2ccccc2)C(CC=O)CC(C)C(=O)C=CC(C)=CC1COC(=O)Cc1ccccc1 (stereo not drawn)" metric="minimal inhibitory concentration (MIC)" measured_value=1
compound="CCC1OC(=O)CC(O)C(C)C(OC2OC(C)C(O)C(N(C)C)C2O)C(CC=O)CC(C)C(=O)C=CC(C)=CC1COC(=O)Cc1cc(OC)ccc1OC (stereo not drawn)" metric="minimal inhibitory concentration (MIC)" measured_value=2
compound="CCC1OC(=O)CC(O)C(C)C(OC2OC(C)C(O)C(N(C)C)C2OC(C)=O)C(CC=O)CC(C)C(=O)C=CC(C)=CC1COC(=O)NCc1ccccc1 (stereo not drawn)" metric="minimal inhibitory concentration (MIC)" measured_value=1
compound="CCC1OC(=O)CC(O)C(C)C(OC2OC(C)C(O)C(N(C)C)C2OC(C)=O)C(CC=O)CC(C)C(=O)C=CC(C)=CC1COC(=O)CCCC(=O)OC (stereo not drawn)" metric="minimal inhibitory concentration (MIC)" measured_value=2
compound="CCCC(=O)OCC1C=C(C)C=CC(=O)C(C)CC(CC=O)C(OC2OC(C)C(O)C(N(C)C)C2O)C(C)C(O)CC(=O)OC1CC (stereo not drawn)" metric="minimal inhibitory concentration (MIC)" measured_value=2
compound="CCC1OC(=O)CC(O)C(C)C(OC2OC(C)C(O)C(N(C)C)C2O)C(CC=O)CC(C)C(=O)C=CC(C)=CC1COC(C)=O (stereo not drawn)" metric="minimal inhibitory concentration (MIC)" measured_value=4
compound="CCCCCCCC(=O)OCC1C=C(C)C=CC(=O)C(C)CC(CC=O)C(OC2OC(C)C(O)C(N(C)C)C2O)C(C)C(O)CC(=O)OC1CC (stereo not drawn)" metric="minimal inhibitory concentration (MIC)" measured_value=4
compound="CCC1OC(=O)CC(O)C(C)C(OC2OC(C)C(O)C(N(C)C)C2OC(C)=O)C(CC=O)CC(C)C(=O)C=CC(C)=CC1COC(=O)COc1ccccc1 (stereo not drawn)" metric="minimal inhibitory concentration (MIC)" measured_value=1
compound="CCC1OC(=O)CC(O)C(C)C(OC2OC(C)C(OC(C)=O)C(N(C)C)C2OC(C)=O)C(CC=O)CC(C)C(=O)C=CC(C)=CC1CO (stereo not drawn)" metric="minimal inhibitory concentration (MIC)" measured_value=4
compound="CCC1OC(=O)CC(O)C(C)C(OC2OC(C)C(OC(C)=O)C(N(C)C)C2OC(C)=O)C(CC=O)CC(C)C(=O)C=CC(C)=CC1COC(=O)[C@H](NC(=O)OC(C)(C)C)c1ccccc1 (stereo partly drawn)" metric="minimal inhibitory concentration (MIC)" measured_value=2
compound="CCC1OC(=O)CC(O)C(C)C(OC2OC(C)C(OC(C)=O)C(N(C)C)C2OC(C)=O)C(CC=O)CC(C)C(=O)C=CC(C)=CC1COS(=O)(=O)c1ccc(C)cc1 (stereo not drawn)" metric="minimal inhibitory concentration (MIC)" measured_value=1

====

# System: Streptococcus pyogenes C203
# Test summary: MIC, standard agar-dilution assay (Table II)
# Type: cell-based
# Set-up: unit not given here
Metric: minimal inhibitory concentration (MIC)

compound="CCC1OC(=O)CC(O)C(C)C(OC2OC(C)C(O)C(N(C)C)C2OC(C)=O)C(CC=O)CC(C)C(=O)C=CC(C)=CC1COC(=O)COc1ccccc1 (centres unmarked)" measured_value=0.06
compound="CCC1OC(=O)CC(O)C(C)C(OC2OC(C)C(OC(C)=O)C(N(C)C)C2OC(C)=O)C(CC=O)CC(C)C(=O)C=CC(C)=CC1COC(=O)C(C)C (centres unmarked)" measured_value=1
compound="CCC1OC(=O)CC(O)C(C)C(OC2OC(C)C(O)C(N(C)C)C2O)C(CC=O)CC(C)C(=O)C=CC(C)=CC1COP(=O)(Oc1ccccc1)Oc1ccccc1 (centres unmarked)" measured_value=0.125
compound="CCC(=O)OCC1C=C(C)C=CC(=O)C(C)CC(CC=O)C(OC2OC(C)C(O)C(N(C)C)C2OC(C)=O)C(C)C(O)CC(=O)OC1CC (centres unmarked)" measured_value=0.25
compound="CCC1OC(=O)CC(O)C(C)C(OC2OC(C)C(O)C(N(C)C)C2O)C(CC=O)CC(C)C(=O)C=CC(C)=CC1COC(=O)C(C)C (centres unmarked)" measured_value=0.5
compound="CCC1OC(=O)CC(O)C(C)C(OC2OC(C)C(O)C(N(C)C)C2OC(C)=O)C(CC=O)CC(C)C(=O)C=CC(C)=CC1COC(=O)OC (centres unmarked)" measured_value=0.25
compound="CCC1OC(=O)CC(O)C(C)C(OC2OC(C)C(O)C(N(C)C)C2O)C(CC=O)CC(C)C(=O)C=CC(C)=CC1COC(=O)[C@H](O)c1ccccc1 (some centres unmarked)" measured_value=0.125
compound="CCC(=O)OC1C(OC2C(CC=O)CC(C)C(=O)C=CC(C)=CC(CO)C(CC)OC(=O)CC(O)C2C)OC(C)C(O)C1N(C)C (centres unmarked)" measured_value=0.5
compound="CCC1OC(=O)CC(O)C(C)C(OC2OC(C)C(OC(=O)CC(C)C)C(N(C)C)C2OC(C)=O)C(CC=O)CC(C)C(=O)C=CC(C)=CC1COC(=O)CC(C)C (centres unmarked)" measured_value=1
compound="CCC1OC(=O)CC(O)C(C)C(OC2OC(C)C(OC(C)=O)C(N(C)C)C2OC(C)=O)C(CC=O)CC(C)C(=O)C=CC(C)=CC1COC(=O)[C@H](NC(=O)OC(C)(C)C)c1ccccc1 (some centres unmarked)" measured_value=0.125
compound="CCC1OC(=O)CC(O)C(C)C(OC2OC(C)C(O)C(N(C)C)C2O)C(CC=O)CC(C)C(=O)C=CC(C)=CC1COC(=O)C12CC3CC(CC(C3)C1)C2 (centres unmarked)" measured_value=1
